Target: human CysLT1 receptor (Homo sapiens, UniProt Q9Y271)
Sequence (Q9Y271 whole entry): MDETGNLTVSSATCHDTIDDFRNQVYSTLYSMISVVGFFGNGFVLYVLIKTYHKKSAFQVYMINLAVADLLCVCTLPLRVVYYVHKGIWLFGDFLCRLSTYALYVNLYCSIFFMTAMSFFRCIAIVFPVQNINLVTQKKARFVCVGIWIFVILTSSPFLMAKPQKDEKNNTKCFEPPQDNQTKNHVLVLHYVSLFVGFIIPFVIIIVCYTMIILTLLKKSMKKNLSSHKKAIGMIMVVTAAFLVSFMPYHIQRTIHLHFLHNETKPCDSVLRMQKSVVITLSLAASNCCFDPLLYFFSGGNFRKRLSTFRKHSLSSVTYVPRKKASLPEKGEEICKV
Experiment: Cellular in vitro test to determine the CysLT1 activity (aequorin luminescence, CHO K1 cells)
Conditions: recombinant CHO K1 cells with aequorin and human CysLT1 receptor; antagonism of LTD4 (3×10^−9 M) induced calcium release; 15 minutes preincubation
pIC50: −log10 of the molar value.
compounds and their reported pIC50

Reference set (4 entries):
compound | target-or-system | experimental-result
O=C(O)CNC(=O)Cc1cc(C(=O)O)ccc1OCCCc1ccc(OCCCC2CCCCC2)cc1 | human CysLT1 receptor (Homo sapiens, UniProt Q9Y271) | < 5.52
O=C(O)c1ccc(OCCCc2ccc(OCCCCOC3CCCCC3)cc2)c(CC(=O)N2CCCC(C(=O)O)C2)c1 (centres unmarked) | human CysLT1 receptor (Homo sapiens, UniProt Q9Y271) | < 5.00
O=C(O)CCCNC(=O)Cc1cc(C(=O)O)ccc1OCCCc1ccc(OCCCC2CCCCC2)cc1 | human CysLT1 receptor (Homo sapiens, UniProt Q9Y271) | < 5.00
O=C(O)CCCNC(=O)Cc1cc(C(=O)O)ccc1OCCCc1ccc(OCCCCOc2ccccc2)cc1 | human CysLT1 receptor (Homo sapiens, UniProt Q9Y271) | < 5.00

// switching to the query compound
Input line: Please look up its pIC50: O=C(O)c1ccc(OCCCc2ccc(OCCCC3CCCCC3)cc2)c(CC(=O)N2CCC(C(=O)O)CC2)c1
Output line: < 5.52

These data points were gathered from patent US20080176898A1.
